Measured pIC50 of individual entries
# Test target: human TLR9 (Homo sapiens, UniProt Q9NR96)
# Sequence (Q9NR96 26-1032): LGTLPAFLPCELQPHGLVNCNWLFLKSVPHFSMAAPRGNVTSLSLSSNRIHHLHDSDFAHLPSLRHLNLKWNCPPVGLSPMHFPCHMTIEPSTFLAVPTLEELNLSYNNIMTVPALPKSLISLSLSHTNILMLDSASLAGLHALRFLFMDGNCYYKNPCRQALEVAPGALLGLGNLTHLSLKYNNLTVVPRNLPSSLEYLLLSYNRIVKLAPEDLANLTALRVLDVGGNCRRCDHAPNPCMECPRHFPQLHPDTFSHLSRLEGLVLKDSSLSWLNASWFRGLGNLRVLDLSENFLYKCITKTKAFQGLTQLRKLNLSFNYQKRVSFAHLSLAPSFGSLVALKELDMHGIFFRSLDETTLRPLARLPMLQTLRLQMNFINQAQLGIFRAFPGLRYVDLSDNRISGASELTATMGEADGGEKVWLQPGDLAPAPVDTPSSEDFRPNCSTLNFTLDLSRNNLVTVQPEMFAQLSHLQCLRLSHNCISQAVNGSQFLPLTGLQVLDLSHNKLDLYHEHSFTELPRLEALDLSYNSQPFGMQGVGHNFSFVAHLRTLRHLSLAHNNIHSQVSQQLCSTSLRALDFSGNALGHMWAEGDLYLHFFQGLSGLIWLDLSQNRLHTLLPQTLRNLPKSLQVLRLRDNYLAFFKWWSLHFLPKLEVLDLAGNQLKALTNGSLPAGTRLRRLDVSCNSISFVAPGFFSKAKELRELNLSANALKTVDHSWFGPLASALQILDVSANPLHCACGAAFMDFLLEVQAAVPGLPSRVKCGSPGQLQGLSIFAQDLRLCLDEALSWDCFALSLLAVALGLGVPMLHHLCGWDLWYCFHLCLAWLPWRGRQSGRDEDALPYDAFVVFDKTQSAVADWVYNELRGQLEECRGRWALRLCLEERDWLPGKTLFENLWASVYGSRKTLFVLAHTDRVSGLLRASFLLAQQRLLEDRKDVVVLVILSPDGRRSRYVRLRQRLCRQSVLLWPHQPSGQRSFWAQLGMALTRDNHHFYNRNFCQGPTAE
# Assay summary: TLR9 inhibition reporter assay (HEK-Blue cells, SEAP reporter, ODN2006 stimulation)
# Settings: HEK-Blue cells overexpressing human TLR9, ODN2006 5 nM
pIC50: −log10 of the molar value. Structures can show the parent of a compound that is named as a salt.

Compound: COc1ccc(-c2[nH]c3ccc(C4CCN(C(=O)CN(C)CCO)CC4)cc3c2C)cc1OC [Example 408]
Test target: human TLR9 (Homo sapiens, UniProt Q9NR96)
pIC50: 5.70
--
Compound: COc1ccc(-c2[nH]c3ccc(C4CCNCC4F)cc3c2C(C)C)cc1OC (racemic) [Example 320]
Test target: human TLR9 (Homo sapiens, UniProt Q9NR96)
pIC50: 5.30
--
Compound: CNCCN1CCC(c2cc3c(C(C)C)c(-c4ccc(OC)c(OC)c4)[nH]c3cc2F)CC1 [Example 208]
Test target: human TLR9 (Homo sapiens, UniProt Q9NR96)
pIC50: 6.43
--
Compound: COc1ccc(-c2[nH]c3ccc(C4CCN(C(=O)CNC(CO)CO)CC4)cc3c2C(C)C)cc1OC [Example 220]
Test target: human TLR9 (Homo sapiens, UniProt Q9NR96)
pIC50: 5.25
--
Compound: COc1ccc(-c2[nH]c3ccc(C4CCN(C(=O)CN5CCC[C@@H](C(=O)N6C(C)CCC6C)C5)CC4)cc3c2C(C)C)cc1OC (stereo partly shown) [Example 311]
Test target: human TLR9 (Homo sapiens, UniProt Q9NR96)
pIC50: 5.61
--
Compound: COc1ccc(-c2[nH]c3ccc(C4CCN(CC(=O)Nc5cc(C(C)(C)C)[nH]n5)CC4)cc3c2CC(F)(F)F)cc1OC [Example 387]
Test target: human TLR9 (Homo sapiens, UniProt Q9NR96)
pIC50: 5.07
--
Compound: COc1ccc(-c2[nH]c3ccc(C4CCNCC4)cc3c2C(C)C)cc1OC [Example 194, hydrochloride]
Test target: human TLR9 (Homo sapiens, UniProt Q9NR96)
pIC50: 5.30
